Reference source: patent US20050009840A1

Please respond with reported IC50 for every item in the list.
# Measured on: Met kinase domain (GST fusion protein) (Homo sapiens, UniProt P08581)
# Construct: Purified GST fusion protein containing the Met kinase domain
# Sequence (P08581 1078-1345 limits assumed): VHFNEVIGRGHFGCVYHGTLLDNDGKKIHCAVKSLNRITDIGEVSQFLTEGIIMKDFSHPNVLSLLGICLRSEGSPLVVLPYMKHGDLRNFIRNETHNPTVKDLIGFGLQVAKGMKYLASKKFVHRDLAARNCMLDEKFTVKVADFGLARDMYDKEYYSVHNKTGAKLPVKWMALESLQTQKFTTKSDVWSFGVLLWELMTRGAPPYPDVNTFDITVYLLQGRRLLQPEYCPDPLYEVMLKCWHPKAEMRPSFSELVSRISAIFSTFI
# Experimental details: Met transphosphorylation assay (ELISA, poly(glu-tyr) substrate);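 note: Cell-free ELISA with plate-bound poly(Glu:Tyr 4:1) phosphorylated by GST-fused Met kinase domain plus ATP and Mn2+, phosphotyrosine detected by anti-phosphotyrosine antibody with HRP and ABTS read-out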
# Type: biochemical
# Cond: plain numbers in column Met IC50 (μM) of Table 2; read-out: Met IC50
Give bare numbers, in µM.

Below, each entry is followed by its recorded IC50 result.
- Compound: "CC(Oc1cc(-c2ccc(NC(=O)N3CC[C@H](N)C3)cc2)cnc1N)c1c(F)ccc(F)c1Cl (stereo partly drawn)"
  IC50 [µM]: 0.075
- Compound: "Nc1ccc(-c2cnc(N)c(OCc3c(F)ccc(F)c3Cl)c2)cn1"
  IC50 [µM]: 0.209

Parameters: items (list). Returns: IC50 for each item.
1. CC(Oc1cc(-c2cccc(C(=O)N3CC[C@@H](N)C3)c2)cnc1N)c1c(Cl)cccc1Cl (stereo partly drawn)
2. CC(Oc1cc(C#CCNC(=O)N2CCN(C)CC2)cnc1N)c1c(Cl)ccc(F)c1Cl (stereo not drawn)
3. CC(Oc1cc(C#CCNC(=O)CN(C)C)cnc1N)c1c(Cl)ccc(F)c1Cl (stereo not drawn)
4. CC(Oc1cc(-c2ccc(NC(=O)NC3CCN(C)CC3)cc2)cnc1N)c1c(F)ccc(F)c1Cl (stereo not drawn)
5. CC(Oc1cc(-c2ccc(C(=O)N3CCN(C)CC3)cc2)cnc1N)c1c(Cl)ccc(F)c1Cl (stereo not drawn)
6. CC(Oc1cc(-c2ccc(NC(=O)NCCN3CCOCC3)cc2)cnc1N)c1c(F)ccc(F)c1Cl (stereo not drawn)
7. CC(Oc1cc(-c2ccc(NC(=O)N3CC[C@@H](N)C3)cc2)cnc1N)c1c(Cl)ccc(F)c1Cl (stereo partly drawn)

0.072
0.056
0.022
0.038
0.079
0.13
0.053
